TARGET OF ASSAY: T1, monomeric SARS-CoV-2 receptor binding domain (RBD-H6) (SARS-CoV-2, UniProt P0DTC2 319-541)
T1 construct: Made in HEK293-6E cells; also called RBD Spike; monomeric RBD
ASSAY COMMENT: ELISA screen
QUANTITY: Mean normalized OD (OD)

BINDER	QUANTITY	REPORTED MEASUREMENT
Mrc2_5 CRD-mouse IgG2a-Fc fusion protein (Fc fusion) FQEAEYKFFEHHSSWAQAQRICTWFQADLTSVHSQAELDFLGQNLQKLSSDQEQHWWIGLHTLESDGRFRWTDGSIINFISWAPGKPRPIGKDKKCVYMTARQEDWGDQRCHTALPYICKGGGSGGGSGGGS	Mean normalized OD	0.002
Ly75_4 CRD-mouse IgG2a-Fc fusion protein (Fc fusion) SSLSCYKVFHIERIVRKRNWEEAERFCQALGAHLPSFSRREEIKDFVHLLKDQFSGQRWLWIGLNKRSPDLQGSWQWSDRTPVSAVMMEPEFQQDFDIRDCAAIKVLDVPWRRVWHLYEDKDYAYWKPFACDAKLEWVCQGGGSGGGSGGGS	Mean normalized OD	0.007
Clec6a CRD-mouse IgG2a-Fc fusion protein (Fc fusion) FGSSCYLISTKENFWSTSEQNCVQMGAHLVVINTEAEQNFITQQLNESLSYFLGLSDPQGNGKWQWIDDTPFSQNVRFWHPHEPNLPEERCVSIVYWNPSKWGWNDVFCDSKHNSICEGGGSGGGSGGGS	Mean normalized OD	0.029
Ly75_10 CRD-mouse IgG2a-Fc fusion protein (Fc fusion) YGGHCYASDQVLHSFSEAKQVCQELDHSATVVTIADENENKFVSRLMRENYNITMRVWLGLSQHSLDQSWSWLDGLDVTFVKWENKTKDGDGKCSILIASNETWRKVHCSRGYARAVCKIGGGSGGGSGGGS	Mean normalized OD	0.014

Values were extracted from patent EP4039268A1.
